// Kd lookup, one value per entry
Molecular target: T1, mouse 4-1BB (mouse, UniProt P20334 24-187)
T1 construct: also called mu4-1BB; murine 4-1BB
T1 sequence (looked up): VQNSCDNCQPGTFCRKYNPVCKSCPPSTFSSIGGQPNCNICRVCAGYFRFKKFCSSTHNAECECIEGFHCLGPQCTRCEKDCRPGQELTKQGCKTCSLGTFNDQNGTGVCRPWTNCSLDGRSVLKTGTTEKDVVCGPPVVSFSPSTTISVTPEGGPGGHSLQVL
Assay: SPR (Biacore)
Numbers only; they are read as nM.

Reference set, count: 3
| Binder | Kd, nM |
| --- | --- |
| TABBY101-rIgG1 (antibody, V domains shown, rat IgG1, kappa) VH: QIQLVQSGPELKKPGESVKISCKASGYTFTDFAIHWVKQAPGKGLKWMGWINTYTGKPTYADDFKGRFVFSLEASASTANLQISNLKNEDTATYFCSRGAPRPTNWGQGTLVTVSS VL: DIQMTQSPASLSASLGETVSIECLASEDIYNNLAWYQQKPGKSPQLLIYYESRLQDGVPTRFSGSGSGTQYSLKINSLESEDAATYFCLQDSEYPYTFGAGTKLELK | 0.82 |
| TABBY108-rIgG1 (antibody, V domains shown, rat IgG1) VH: EIQLQESGPGLVRPSQSLSLACSVTGYTITSAYDWSWIRKFPGNKMEWMGYIAYIGFTNSNPSLKSRISITRDTSKNQFFLQLKSVTTEDTATYYCARWSSYIPRYFDFWGPGTMVTVSS VL: QAVLTQPNSVSTSLGSTVKLSCTITSGNIEDNFVHWYQHYEGRSPTTMIHNDDKRPDGVPDRFSGSIDSSSNSAFLTINNVEIEDEAIYFCHSYVSSINIFGGGTKLTVL | 0.36 |
| TABBY104-rIgG1 (antibody, V domains shown, rat IgG1, kappa) VH: QVTLKESGPGILQPSQTLSLTCTFSGFSLSTDGLGVTWIRQPSGKGLEWLANIWWDDDKDYNPSLKNRLTISKDTSNPQAFLKITNVDTADTATYYCARIVPNSGHEDYWGQGVMVIVSS VL: DIQMTQSPSFLSASVGDRVTINCKASQNINRYLNWYQQKLGEAPKLLMYNTNSMQTGIPSRFSGSGSGTDFTLTISSLQPEDVATYFCLQHNSWPRTFGGGTKLELK | 0.14 |

# binder TABBY103-rIgG1 (antibody, V domains shown, rat IgG1, kappa) VH: QVQLQQSGAELVKPGSSVKISCKASDYTFTSNFLHWIKQQPGNGLEWIGWINPGDGDTYYNQKFNGKATLTADKSSTTAYMQLSSLTSEDSAVYFCAGGNYYAAHYPPGPWYFDFWGPGTMVTVSS VL: DTVLTQSPALAVSLGQRVTISCRASKSVSIYMHWYQQKSGQQPKFLIYTASNLESGVPSRFSGSGSGTDFTLTIDPVEADDIANYYCQQSNELPFTFGSGTKLEIK ; its Kd = 0.17

Entry TABBY106-rIgG1 (antibody, V domains shown, rat IgG1, lambda) VH: QVQLQQSGAELAKPGTSVKLSCKASGYTFTSYYIYWVKQRPGQGLEWIGNIWPGNGGTFYGEKFMGKATFTADTSSSTAYMLLGSLTPEDSAYYFCARRPDYSGDDYFDYWGQGVLVTVSS VL: QVVLTQPKSVSTSLKSTVKLSCKLNSGNIGSYYVHWYQQHAGRSPTTMIYRDDKRPDGVPDRFSGSIDSSSNSAFLTINNVQTEDDAIYFCHSYDSTITPVFGGGTKLTVL — recorded Kd = 1.6
